Test Target: M4 muscarinic receptor (Homo sapiens, UniProt P08173)
Sequence (P08173 1-479): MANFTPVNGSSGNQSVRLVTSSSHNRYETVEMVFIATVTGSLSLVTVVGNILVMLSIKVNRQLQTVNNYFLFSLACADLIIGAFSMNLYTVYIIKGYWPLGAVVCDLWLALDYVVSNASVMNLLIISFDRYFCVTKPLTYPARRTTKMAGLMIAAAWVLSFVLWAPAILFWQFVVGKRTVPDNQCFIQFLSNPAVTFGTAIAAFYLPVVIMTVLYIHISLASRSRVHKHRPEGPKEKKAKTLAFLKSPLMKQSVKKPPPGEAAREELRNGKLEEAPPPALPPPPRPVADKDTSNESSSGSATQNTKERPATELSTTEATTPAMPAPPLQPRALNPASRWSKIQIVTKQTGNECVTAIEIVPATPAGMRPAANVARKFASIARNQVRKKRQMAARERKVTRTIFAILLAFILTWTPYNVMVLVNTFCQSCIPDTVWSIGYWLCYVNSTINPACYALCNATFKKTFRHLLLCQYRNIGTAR
Assay: inhibition of forskolin-stimulated cAMP, M4 CHO cells (M4Gi)
Assay type: cell-based
Set-up: host or cells: CHO cells, stably transfected
Run Conditions: M4Gi (↓cAMP), Table 8, to carbachol
Endpoint Label: Δlog(τ/KA)

QUERY: API: value(readout=Δlog(τ/KA), system=M4 muscarinic receptor (Homo sapiens, UniProt P08173)) for record C[N+](C)(C)CCOC(N)=O [carbachol, reference compound]
RESULT: 0

QUERY: API: value(readout=Δlog(τ/KA), system=M4 muscarinic receptor (Homo sapiens, UniProt P08173)) for record C[N+]1(Cc2cccs2)CC=CCC1.[I-] (stereo not shown)
RESULT: 1.58 ± 0.22

QUERY: API: value(readout=Δlog(τ/KA), system=M4 muscarinic receptor (Homo sapiens, UniProt P08173)) for record "C1=CCN(Cc2cccs2)CC1.Cl"
RESULT: 2.15 ± 0.16

QUERY: API: value(readout=Δlog(τ/KA), system=M4 muscarinic receptor (Homo sapiens, UniProt P08173)) for record O=C1CCCN1CC#CCN1CCCC1 [oxotremorine, reference compound]
RESULT: −0.62 ± 0.08

====

Test Target: M1 muscarinic receptor (Homo sapiens)
Sequence (P11229 1-460): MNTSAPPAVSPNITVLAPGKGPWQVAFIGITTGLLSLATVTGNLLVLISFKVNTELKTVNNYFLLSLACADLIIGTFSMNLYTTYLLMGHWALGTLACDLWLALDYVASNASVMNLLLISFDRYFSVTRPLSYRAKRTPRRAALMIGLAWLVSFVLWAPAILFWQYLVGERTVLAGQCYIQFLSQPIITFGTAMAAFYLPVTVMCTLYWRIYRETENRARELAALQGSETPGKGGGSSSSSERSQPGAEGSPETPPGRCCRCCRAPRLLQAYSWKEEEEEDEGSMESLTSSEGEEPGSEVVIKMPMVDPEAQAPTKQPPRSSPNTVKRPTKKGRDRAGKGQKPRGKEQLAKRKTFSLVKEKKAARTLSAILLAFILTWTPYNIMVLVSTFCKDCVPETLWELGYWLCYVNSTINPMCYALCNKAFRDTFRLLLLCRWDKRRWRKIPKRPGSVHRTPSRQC
Assay: accumulation of inositol phosphates IPX, M1 CHO cells (M1Gq)
Assay type: cell-based
Set-up: host or cells: CHO cells, stably transfected
Run Conditions: M1 (↑IPX), preferential response, to carbachol; Tables 2, 3, 7
Endpoint Label: Δlog(τ/KA)
Format: numeric value only, no unit, no commentary.

QUERY: API: value(readout=Δlog(τ/KA), system=M1 muscarinic receptor (Homo sapiens)) for record "Brc1ccc(CN2CC=CCC2)s1.Cl"
RESULT: 2.62

QUERY: API: value(readout=Δlog(τ/KA), system=M1 muscarinic receptor (Homo sapiens)) for record "C1=CCN(Cc2cccs2)CC1.Cl"
RESULT: 2.98

QUERY: API: value(readout=Δlog(τ/KA), system=M1 muscarinic receptor (Homo sapiens)) for record C[N+]1(Cc2cccs2)CC=CCC1.[I-] (centres unmarked)
RESULT: 1.96

QUERY: API: value(readout=Δlog(τ/KA), system=M1 muscarinic receptor (Homo sapiens)) for record Cc1ccc(C[N+]2(C)CC=CCC2)s1.[I-] (centres unmarked)
RESULT: 2.24

QUERY: API: value(readout=Δlog(τ/KA), system=M1 muscarinic receptor (Homo sapiens)) for record "Cc1ccc(CN2CC=CCC2)s1.Cl"
RESULT: 3.28
